These entries and their values trace back to the supplement of paper PMC13380429.

- System: Vero E6 infected with SARS-CoV-2
- protocol-notes: morphology score (similarity to uninfected cells); higher = more like uninfected cells
- measurement-parameters: 24 h
assay-endpoint: morphology score
Enter the number alone.

Worked examples, 4 compounds total:
* c1ccc(Oc2nc(NC3CCCCC3)c3[nH]cnc3n2)cc1 (0.833333 µM) | 0.191
* CC(=O)N(OCc1ccccc1)[C@@H]1c2cc(C#N)ccc2OC(C)(C)[C@H]1O (10 µM) | 0.159
* CC(=O)OCC(=O)NCCCOc1cccc(CN2CCCCC2)c1 [roxatidine-acetate] (10 µM) | 0.0141
* N=C(C[C@@H](O)COc1ccccc1-c1ccccc1)N1CCCCC1 (10 µM) | 0.0845

(Q) What does the record list as morphology score for Nc1nccs1 [aminothiazole] (10 µM) ?
(A) 0.0165

(Q) What does the record list as morphology score for CCCN1CCO[C@@H]2c3cc(O)ccc3OC[C@H]21 (10 µM) ?
(A) 0.173

(Q) What does the record list as morphology score for CCN(CCO)CCCC(C)Nc1ccnc2cc(Cl)ccc12 (stereo not drawn) [hydroxychloroquine] (10 µM) ?
(A) 0.362

====

Measured morphology score of individual entries
- System: Vero E6 infected with SARS-CoV-2
- protocol-notes: morphology score (similarity to uninfected cells); higher = more like uninfected cells
- measurement-parameters: 24 h
Enter the number alone.

Worked examples, 3 compounds total:
• N#CN1CCCC1 [pyrrolidine-1-carbonitrile] (10 µM) = 0.254
• COC(=O)CCC(=O)CN [methyl-aminolevulinate] (10 µM) = 0.118
• CCC[C@@H](NC(=O)N1C(=O)C(CC)(CC)[C@@H]1Oc1ccc(C(=O)N2CCN(C)CC2)cc1)c1ccc2c(c1)OCO2 (10 µM) = 0.171

(Q) Field: morphology score (Vero E6 infected with SARS-CoV-2). Entry: Clc1ccc2nsnc2c1NC1=NCCN1 [tizanidine] (10 µM)
(A) -0.0251

(Q) Field: morphology score (Vero E6 infected with SARS-CoV-2). Entry: O=C(Nc1ccc(S(=O)(=O)C(F)(F)F)cc1)C1=CCN(c2ncccc2C(F)(F)F)CC1 (10 µM)
(A) 0.135

(Q) Field: morphology score (Vero E6 infected with SARS-CoV-2). Entry: N#CC(Cc1ccc(O)cc1)c1ccc(O)cc1 (centres undefined) [diarylpropionitrile] (10 µM)
(A) 0.138

(Q) Field: morphology score (Vero E6 infected with SARS-CoV-2). Entry: Cc1cc(N)c2ccccc2[n+]1CCCCCCCCCC[n+]1c(C)cc(N)c2ccccc21 [dequalinium] (10 µM)
(A) 0.175

(Q) Field: morphology score (Vero E6 infected with SARS-CoV-2). Entry: Cc1ccsc1/C=C/C1=NCCCN1C [morantel] (10 µM)
(A) -0.00401

(Q) Field: morphology score (Vero E6 infected with SARS-CoV-2). Entry: CCOC(=O)OC(C)OC1=C(C(=O)Nc2ccccn2)N(C)S(=O)(=O)c2ccccc21 (centres undefined) [ampiroxicam] (10 µM)
(A) -0.00273

(Q) Field: morphology score (Vero E6 infected with SARS-CoV-2). Entry: CN1C[C@@H]2C[C@H]1CN2c1cc2c(cc1F)c(=O)c(C(=O)O)cn2C1CC1 [danofloxacin] (10 µM)
(A) 0.319

(Q) Field: morphology score (Vero E6 infected with SARS-CoV-2). Entry: c1ccc2c(c1)CCCc1cc(NCCN3CCOCC3)nnc1-2 (10 µM)
(A) -0.11
